Cited source for all entries: patent US20100015258A1

Molecular target: Fatty Acid Binding Protein 4 (FABP4) (Homo sapiens)
Construct: purchased Cayman, Ann Arbor, Mich
Sequence (P15090 whole entry, species assumed): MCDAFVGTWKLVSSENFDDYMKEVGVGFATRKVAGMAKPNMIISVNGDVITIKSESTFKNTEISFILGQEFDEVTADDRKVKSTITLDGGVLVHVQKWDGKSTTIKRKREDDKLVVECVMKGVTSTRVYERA
Assay: FABP4 Inhibitor/Ligand Screening Kit (fluorescence)
Conditions: range across SRB Extracts 1 to 14; based on contribution across all actives; read-out: Predicted IC50
pIC50: −log10 of the molar value.
Listed below: pIC50 values for each entry.

A selection of reference data follows.
[
  {
    "molecule": "CC1CCC2(C)CCC3(C)C(=CCC4C5(C)CCCC(C)C5CCC43C)C2C1C (stereo not shown)",
    "result": "3.80 to 4.76"
  },
  {
    "molecule": "CC(=O)CC/C=C(\\C)CC/C=C(\\C)CC/C=C(\\C)CC/C=C(\\C)CC/C=C(\\C)CC/C=C(\\C)CC/C=C(\\C)CCC=C(C)C",
    "result": "4.09 to 5.16"
  },
  {
    "molecule": "CC1(C)CCC2(C)CCC3(C)C(=C2C1)C=CC1C2(C)CCCC(C)(C)C2CCC13C (stereo not shown)",
    "result": "4.04 to 4.55"
  }
]

With those in mind, consider the next molecule.
Q: API: value(readout= pIC50, system= Fatty Acid Binding Protein 4 (FABP4) (Homo sapiens), query= CC[C@H]1CC[C@H]2[C@@H]3CC(O)C4CC(O)C(O)C[C@]4(C)[C@H]3CC[C@]12C (stereo partly shown) )
A: 4.09 to 4.35

----------
Biological target: Fatty Acid Binding Protein 4 (FABP4) (Homo sapiens)
Construct: purchased Cayman, Ann Arbor, Mich
Test: FABP4 Inhibitor/Ligand Screening Kit (fluorescence)
Conditions: in SRB Extract 6; based on contribution across all actives; read-out: Predicted IC50
metric: IC50 (µM)

[
  {
    "compound": "CCCCCCCCCCCC/C=C\\CC/C=C\\CC[C@@H](O)[C@H](O)CCCCCCCCCCC1=C[C@H](C)OC1=O [Montecristin]",
    "measuredNumber": 40
  },
  {
    "compound": "CC1(C)CCC2(C)CCC3(C)C(=C2C1)C=CC1C2(C)CCCC(C)(C)C2CCC13C (stereo not drawn) [11,13(18)-Oleanadiene]",
    "measuredNumber": 91
  },
  {
    "compound": "C=C(CCC(C)C1CCC2(C)C3CCC4CC(O)CCC45CC35CCC12C)C(C)C (stereo not drawn)",
    "measuredNumber": 60.5
  },
  {
    "compound": "CC(=O)CC/C=C(\\C)CC/C=C(\\C)CC/C=C(\\C)CC/C=C(\\C)CC/C=C(\\C)CC/C=C(\\C)CC/C=C(\\C)CCC=C(C)C [Bombiprenone]",
    "measuredNumber": 26.5
  },
  {
    "compound": "CCCCCCCCC=CCCCCCCCC1CC(O)C(=O)O1 (stereo not drawn)",
    "measuredNumber": 96.8
  }
]

[I] CC[C@H]1CC[C@H]2[C@@H]3CC(O)C4CC(O)C(O)C[C@]4(C)[C@H]3CC[C@]12C (stereo partly drawn) [Pregnane-2,3,6-triol]
[II] CCCCCCCCCCCCCCCCCCCCCCCCCCCCCCOC(=O)C=Cc1ccc(O)c(O)c1
[III] CC1CCC2(C)CCC3(C)C(=CCC4C5(C)CCCC(C)C5CCC43C)C2C1C (stereo not drawn) [24-Nor-12-ursene]
Q: // smallest IC50 at index 0, largest at the end State the ranking by listing the labels in the requested order.
A: II, I, III
